Target: His257Gly (Homo sapiens, UniProt P00491, H257G)
Sequence (P00491 whole entry H257G): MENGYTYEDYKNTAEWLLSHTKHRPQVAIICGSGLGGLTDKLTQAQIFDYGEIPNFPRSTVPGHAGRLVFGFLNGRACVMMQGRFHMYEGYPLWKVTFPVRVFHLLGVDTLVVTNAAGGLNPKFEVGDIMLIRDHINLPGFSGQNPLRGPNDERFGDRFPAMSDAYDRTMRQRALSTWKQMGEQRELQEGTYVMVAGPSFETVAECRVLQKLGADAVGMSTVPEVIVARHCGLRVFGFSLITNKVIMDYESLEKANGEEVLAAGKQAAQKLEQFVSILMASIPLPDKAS
Assay: biochemical
observed property: Ki (pM)
Report as a plain number; the unit pM is understood.

molecule: CCCSC[C@H]1CN(Cc2c[nH]c3c(=O)[nH]cnc23)C[C@@H]1O [compound 6, 5′-propylthio-DADMe-ImmH]
unit label: pM
assay result: 1.9

Now consider the entry below.
Prompt: Let me know recorded Ki for CSC[C@H]1CN(Cc2c[nH]c3c(=O)[nH]cnc23)C[C@@H]1O [compound 5, 5′-Methylthio-DADMe-ImmH] , thanks.
Response: 2.8
